- system tested: Sodium-dependent noradrenaline transporter (Homo sapiens)
- Sequence (P23975 whole entry): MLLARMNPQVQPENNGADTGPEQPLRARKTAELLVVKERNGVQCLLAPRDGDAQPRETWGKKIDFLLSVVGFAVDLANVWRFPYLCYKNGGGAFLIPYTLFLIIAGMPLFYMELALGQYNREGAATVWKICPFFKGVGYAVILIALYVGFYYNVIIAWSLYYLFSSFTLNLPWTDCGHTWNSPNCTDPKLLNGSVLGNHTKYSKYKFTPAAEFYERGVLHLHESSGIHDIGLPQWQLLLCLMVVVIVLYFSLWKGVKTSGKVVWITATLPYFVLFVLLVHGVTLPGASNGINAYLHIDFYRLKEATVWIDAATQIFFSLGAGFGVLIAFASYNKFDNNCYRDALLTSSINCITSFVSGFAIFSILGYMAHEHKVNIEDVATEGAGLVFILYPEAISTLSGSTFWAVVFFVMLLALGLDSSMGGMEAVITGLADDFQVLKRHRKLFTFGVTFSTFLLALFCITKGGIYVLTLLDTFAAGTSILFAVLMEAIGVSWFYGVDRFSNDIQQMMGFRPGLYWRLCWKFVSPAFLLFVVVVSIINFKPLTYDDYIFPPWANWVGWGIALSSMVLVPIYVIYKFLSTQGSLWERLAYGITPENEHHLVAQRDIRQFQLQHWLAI
- assay remarks: Inhibition of human NET expressed in CHOK1 cells incubated for 45 mins by [3H]-norepinephrine uptake assay
- Assay type: cell-based, CHO-K1
pIC50: −log10 of the molar value.
# pIC50 listing for each entry below
measure name: pIC50

[
  {
    "compound": "OC[C@]1(c2ccc(Cl)c(Cl)c2)CCNCCO1",
    "value": 6.15
  },
  {
    "compound": "Cl.OC[C@@H]1CNCCO[C@H]1c1ccc(Cl)c(Cl)c1",
    "value": 8.70
  },
  {
    "compound": "OCC1(c2ccc(Cl)c(Cl)c2)CCCNCC1 (racemic)",
    "value": 8.68
  },
  {
    "compound": "OC[C@H]1CNCCO[C@@H]1c1ccc(Cl)c(Cl)c1",
    "value": 8.24
  },
  {
    "compound": "OCC1(c2ccc(Cl)c(Cl)c2)CCNCCO1 (racemic)",
    "value": 7.77
  },
  {
    "compound": "CC(=O)NC[C@@H]1CNCCO[C@H]1c1ccc(C)c(Cl)c1",
    "value": 8.47
  },
  {
    "compound": "CC(=O)NCC[C@@H]1CNCCO[C@H]1c1ccc(Cl)c(Cl)c1",
    "value": 8.24
  },
  {
    "compound": "OC[C@@H]1CNCCO[C@@H]1c1ccc(Cl)c(Cl)c1",
    "value": 8.07
  },
  {
    "compound": "CN(C)C(=O)[C@@H]1CNCCO[C@H]1c1ccc(Cl)c(Cl)c1.Cl",
    "value": 9.11
  },
  {
    "compound": "CC(=O)NC[C@@H]1CNCCO[C@H]1c1ccc(Cl)c(Cl)c1.O=C(O)/C=C/C(=O)O",
    "value": 9.48
  },
  {
    "compound": "OC[C@H]1CNCCO[C@H]1c1ccc(Cl)c(Cl)c1",
    "value": 8.22
  },
  {
    "compound": "CC(=O)NC[C@@H]1CNCCO[C@H]1c1ccc(Cl)c(F)c1.Cl",
    "value": 8.64
  },
  {
    "compound": "CNC(=O)[C@@H]1CNCCO[C@H]1c1ccc(Cl)c(Cl)c1",
    "value": 7.92
  },
  {
    "compound": "CC(=O)NC[C@@H]1CNCCO[C@H]1c1ccc(Cl)c(C)c1",
    "value": 8.48
  },
  {
    "compound": "CC(=O)NC[C@@H]1CNCCO[C@H]1c1ccc(F)c(Cl)c1.O=C(O)/C=C/C(=O)O",
    "value": 7.89
  },
  {
    "compound": "NC(=O)[C@@H]1CNCCO[C@H]1c1ccc(Cl)c(Cl)c1",
    "value": 7.28
  },
  {
    "compound": "OC[C@@]1(c2ccc(Cl)c(Cl)c2)CCNCCO1",
    "value": 8.25
  }
]

----------
- Species: Homo sapiens
- assay remarks: Selectivity index, ratio of IC50 for human SERT to IC50 for human NET

[
  {
    "compound": "CC(=O)NC[C@@H]1CNCCO[C@H]1c1ccc(Cl)c(F)c1.Cl",
    "comparison symbol": ">",
    "Ratio IC50": 440
  },
  {
    "compound": "CC(=O)NC[C@@H]1CNCCO[C@H]1c1ccc(Cl)c(Cl)c1.O=C(O)/C=C/C(=O)O",
    "comparison symbol": "=",
    "Ratio IC50": 450
  },
  {
    "compound": "CN(C)C(=O)[C@@H]1CNCCO[C@H]1c1ccc(Cl)c(Cl)c1.Cl",
    "comparison symbol": "=",
    "Ratio IC50": 460
  },
  {
    "compound": "OCC1(c2ccc(Cl)c(Cl)c2)CCCNCC1 (racemic)",
    "comparison symbol": "=",
    "Ratio IC50": 17
  },
  {
    "compound": "OCC1(c2ccc(Cl)c(Cl)c2)CCNCCO1 (racemic)",
    "comparison symbol": "=",
    "Ratio IC50": 12
  },
  {
    "compound": "OC[C@@H]1CNCCO[C@@H]1c1ccc(Cl)c(Cl)c1",
    "comparison symbol": "=",
    "Ratio IC50": 1.3
  }
]

----------
- system tested: UniProtKB Q01959
- Sequence (Q01959 whole entry): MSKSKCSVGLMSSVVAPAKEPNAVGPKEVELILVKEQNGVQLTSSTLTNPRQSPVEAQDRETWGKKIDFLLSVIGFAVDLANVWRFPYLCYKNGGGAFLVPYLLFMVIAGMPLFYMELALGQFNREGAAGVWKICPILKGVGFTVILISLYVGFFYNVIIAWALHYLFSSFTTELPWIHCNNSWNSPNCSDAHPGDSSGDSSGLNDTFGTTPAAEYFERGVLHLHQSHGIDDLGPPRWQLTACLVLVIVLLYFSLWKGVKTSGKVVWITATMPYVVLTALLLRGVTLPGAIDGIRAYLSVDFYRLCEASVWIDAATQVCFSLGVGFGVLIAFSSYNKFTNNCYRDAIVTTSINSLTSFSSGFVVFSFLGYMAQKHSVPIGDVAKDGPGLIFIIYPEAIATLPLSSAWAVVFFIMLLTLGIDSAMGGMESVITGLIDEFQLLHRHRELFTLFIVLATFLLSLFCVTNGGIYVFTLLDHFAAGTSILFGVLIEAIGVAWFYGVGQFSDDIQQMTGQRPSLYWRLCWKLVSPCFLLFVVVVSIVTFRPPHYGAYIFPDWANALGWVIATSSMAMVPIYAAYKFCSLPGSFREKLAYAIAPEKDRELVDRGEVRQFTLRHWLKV
- assay remarks: Inhibition of human DAT expressed in CHOK1 cells incubated for 60 mins by [3H]-dopamine uptake assay
Measured IC50, listed per entry.
measure name: IC50

[
  {
    "molecule": "OC[C@]1(c2ccc(Cl)c(Cl)c2)CCNCCO1",
    "measure name": "IC50",
    "value": "> 10000 nM"
  },
  {
    "molecule": "CC(=O)NC[C@@H]1CNCCO[C@H]1c1ccc(Cl)c(C)c1",
    "measure name": "IC50",
    "value": "> 1000 nM"
  },
  {
    "molecule": "CC(=O)NC[C@@H]1CNCCO[C@H]1c1ccc(Cl)c(Cl)c1.O=C(O)/C=C/C(=O)O",
    "measure name": "IC50",
    "value": "1500 nM"
  },
  {
    "molecule": "CC(=O)NC[C@@H]1CNCCO[C@H]1c1ccc(Cl)c(F)c1.Cl",
    "measure name": "IC50",
    "value": "> 1000 nM"
  },
  {
    "molecule": "CNC(=O)[C@@H]1CNCCO[C@H]1c1ccc(Cl)c(Cl)c1",
    "measure name": "IC50",
    "value": "> 1000 nM"
  },
  {
    "molecule": "NC(=O)[C@@H]1CNCCO[C@H]1c1ccc(Cl)c(Cl)c1",
    "measure name": "IC50",
    "value": "> 10000 nM"
  },
  {
    "molecule": "OCC1(c2ccc(Cl)c(Cl)c2)CCNCCO1 (racemic)",
    "measure name": "IC50",
    "value": "> 10000 nM"
  },
  {
    "molecule": "Cl.OC[C@@H]1CNCCO[C@H]1c1ccc(Cl)c(Cl)c1",
    "measure name": "IC50",
    "value": "3100 nM"
  },
  {
    "molecule": "CC(=O)NC[C@@H]1CNCCO[C@H]1c1ccc(C)c(Cl)c1",
    "measure name": "IC50",
    "value": "> 1000 nM"
  },
  {
    "molecule": "CN(C)C(=O)[C@@H]1CNCCO[C@H]1c1ccc(Cl)c(Cl)c1.Cl",
    "measure name": "IC50",
    "value": "70 nM"
  },
  {
    "molecule": "OC[C@@]1(c2ccc(Cl)c(Cl)c2)CCNCCO1",
    "measure name": "IC50",
    "value": "> 10000 nM"
  },
  {
    "molecule": "OCC1(c2ccc(Cl)c(Cl)c2)CCCNCC1 (racemic)",
    "measure name": "IC50",
    "value": "> 1000 nM"
  },
  {
    "molecule": "CC(=O)NCC[C@@H]1CNCCO[C@H]1c1ccc(Cl)c(Cl)c1",
    "measure name": "IC50",
    "value": "> 1000 nM"
  },
  {
    "molecule": "OC[C@@H]1CNCCO[C@@H]1c1ccc(Cl)c(Cl)c1",
    "measure name": "IC50",
    "value": "> 1000 nM"
  },
  {
    "molecule": "CC(=O)NC[C@@H]1CNCCO[C@H]1c1ccc(F)c(Cl)c1.O=C(O)/C=C/C(=O)O",
    "measure name": "IC50",
    "value": "> 1000 nM"
  },
  {
    "molecule": "OC[C@H]1CNCCO[C@@H]1c1ccc(Cl)c(Cl)c1",
    "measure name": "IC50",
    "value": "1400 nM"
  },
  {
    "molecule": "OC[C@H]1CNCCO[C@H]1c1ccc(Cl)c(Cl)c1",
    "measure name": "IC50",
    "value": "> 1000 nM"
  }
]

----------
- system tested: CYP2D6 (Homo sapiens, UniProt P10635)
- Sequence (P10635 whole entry): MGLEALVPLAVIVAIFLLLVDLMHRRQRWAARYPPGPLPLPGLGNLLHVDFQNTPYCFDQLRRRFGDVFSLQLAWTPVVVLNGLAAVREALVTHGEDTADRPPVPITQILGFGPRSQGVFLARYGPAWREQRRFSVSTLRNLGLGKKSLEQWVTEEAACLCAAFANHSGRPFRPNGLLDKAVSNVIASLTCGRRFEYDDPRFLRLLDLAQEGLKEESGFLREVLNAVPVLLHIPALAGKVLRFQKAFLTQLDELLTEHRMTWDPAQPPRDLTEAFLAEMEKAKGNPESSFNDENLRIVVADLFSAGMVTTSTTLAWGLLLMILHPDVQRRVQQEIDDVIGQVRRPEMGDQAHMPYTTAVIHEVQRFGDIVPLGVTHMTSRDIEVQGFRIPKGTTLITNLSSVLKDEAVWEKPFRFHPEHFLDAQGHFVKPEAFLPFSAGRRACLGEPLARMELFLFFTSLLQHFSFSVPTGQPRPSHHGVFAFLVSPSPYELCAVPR
- assay remarks: Inhibition of CYP2D6 (unknown origin) at 10 uM
- Type: ADME
Kindly return satisfied if reported inhibition at 10 µM is no lower than 40%; return not satisfied if it is lower.

[
  {
    "compound": "OC[C@H]1CNCCO[C@H]1c1ccc(Cl)c(Cl)c1",
    "category label": "satisfied"
  },
  {
    "compound": "OC[C@]1(c2ccc(Cl)c(Cl)c2)CCNCCO1",
    "category label": "not satisfied"
  },
  {
    "compound": "OCC1(c2ccc(Cl)c(Cl)c2)CCCNCC1 (racemic)",
    "category label": "satisfied"
  },
  {
    "compound": "Cl.OC[C@@H]1CNCCO[C@H]1c1ccc(Cl)c(Cl)c1",
    "category label": "not satisfied"
  },
  {
    "compound": "OC[C@H]1CNCCO[C@@H]1c1ccc(Cl)c(Cl)c1",
    "category label": "satisfied"
  },
  {
    "compound": "OC[C@@H]1CNCCO[C@@H]1c1ccc(Cl)c(Cl)c1",
    "category label": "satisfied"
  },
  {
    "compound": "OC[C@@]1(c2ccc(Cl)c(Cl)c2)CCNCCO1",
    "category label": "not satisfied"
  },
  {
    "compound": "OCC1(c2ccc(Cl)c(Cl)c2)CCNCCO1 (racemic)",
    "category label": "not satisfied"
  }
]
